Values were extracted from patent US20130116263A1.

MEASURED ON: PAK4 (Homo sapiens, UniProt O96013)
Sequence (O96013 whole entry): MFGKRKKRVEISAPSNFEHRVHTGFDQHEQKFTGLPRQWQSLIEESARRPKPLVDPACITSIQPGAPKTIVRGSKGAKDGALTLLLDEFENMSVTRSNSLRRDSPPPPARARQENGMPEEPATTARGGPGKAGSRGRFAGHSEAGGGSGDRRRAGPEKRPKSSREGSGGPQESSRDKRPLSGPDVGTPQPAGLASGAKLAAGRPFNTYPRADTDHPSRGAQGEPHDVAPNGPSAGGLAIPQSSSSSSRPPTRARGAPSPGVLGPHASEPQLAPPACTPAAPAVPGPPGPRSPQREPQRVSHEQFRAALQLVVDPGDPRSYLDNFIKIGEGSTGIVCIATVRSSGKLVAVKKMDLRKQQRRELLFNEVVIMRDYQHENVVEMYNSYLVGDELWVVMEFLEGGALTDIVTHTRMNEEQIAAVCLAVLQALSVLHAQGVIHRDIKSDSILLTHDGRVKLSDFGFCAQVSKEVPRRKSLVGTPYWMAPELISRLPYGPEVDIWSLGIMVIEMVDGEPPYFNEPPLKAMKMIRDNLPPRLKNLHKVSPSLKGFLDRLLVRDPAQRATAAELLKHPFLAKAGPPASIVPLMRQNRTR
TEST DESCRIPTION: In vitro PAK inhibition assay (Z'-LYTE, SelectScreen), PAK4
Type: biochemical
MEASURED METRIC: IC50

// worked examples, IC50 included
> print(dat)
                                   compound  measurement
1  CCn1c(=O)c(-c2ccc(-c3nccnc3C)cc2Cl)cc2cnc(NC3CCN(C)C3)nc21 (stereo not shown)       > 5 µM
2  CCn1c(=O)c(-c2ccc(-c3cccnc3F)cc2Cl)cc2cnc(NC3CCOC3)nc21 (stereo not shown)       > 5 µM
3  CCn1c(=O)c(-c2ccc(-c3cnccn3)cc2Cl)cc2cnc(N[C@@H]3CCOC3)nc21       > 5 µM

Data request: IC50 for "Cc1cncc(-c2ccc(-c3cc4cnc(NC(C)C)nc4n([C@H]4CC[C@H](N)CC4)c3=O)c(Cl)c2)n1" ?
Data returned: 0.5 to 5 µM

###

I'd appreciate it if you could supply pIC50 values for the items below.
MEASURED ON: UniProtKB O96013
TEST DESCRIPTION: Additional in vitro PAK-4 inhibition assay at ATP 10 uM and 1 mM
Assay type: biochemical
EXPERIMENTAL PARAMETERS: 10 μM ATP; read-out: PAK4 IC50 (10 μM ATP)
pIC50: −log10 of the molar value.

Check out these entries, answers already filled in.
> print(dat)
                                   molecule  measurement
1  Cc1nc(-c2ccc(-c3cc4cnc(NC5CCOCC5)nc4n(CC4CCNCC4)c3=O)c(Cl)c2)no1 [drawing 340]       ≤ 5.30
2  Cc1nc(-c2ccc(-c3cc4cnc(NC5CCOCC5)nc4n(CC4CCN(C)CC4)c3=O)c(Cl)c2)no1       ≤ 5.30
3  CCn1c(=O)c(-c2ccc(-c3noc(C)n3)cc2Cl)cc2cnc(NCC(C)(C)O)nc21       ≤ 5.30

I would be grateful if you could provide pIC50 for each of the following entries.
1. CCn1c(=O)c(-c2ccc(-c3noc(C)n3)cc2Cl)cc2cnc(NCc3ccncc3)nc21
2. CCn1c(=O)c(-c2ccc(-c3noc(C)n3)cc2Cl)cc2cnc(NC3CC3c3ccccc3)nc21 (centres unmarked)
3. CCn1c(=O)c(-c2ccc(-c3noc(C)n3)cc2Cl)cc2cnc(NCCCOC)nc21

Data returned:
1: ≤ 5.30; 2: 5.30 to 6.30; 3: ≤ 5.30

Need pIC50 for each of these molecules.
1. CCn1c(=O)c(-c2ccc(-c3noc(C)n3)cc2Cl)cc2cnc(N[C@@H]3C[C@H]3C)nc21
2. Cc1nc(-c2ccc(-c3cc4cnc(NC5CCOCC5)nc4n(Cc4ccc(CCN)cc4)c3=O)c(Cl)c2)no1 [drawing 338]

Data returned:
1. > 7.30
2. ≤ 5.30

###

MEASURED ON: PAK2 (PAK65) (Homo sapiens)
Sequence (Q13177 whole entry): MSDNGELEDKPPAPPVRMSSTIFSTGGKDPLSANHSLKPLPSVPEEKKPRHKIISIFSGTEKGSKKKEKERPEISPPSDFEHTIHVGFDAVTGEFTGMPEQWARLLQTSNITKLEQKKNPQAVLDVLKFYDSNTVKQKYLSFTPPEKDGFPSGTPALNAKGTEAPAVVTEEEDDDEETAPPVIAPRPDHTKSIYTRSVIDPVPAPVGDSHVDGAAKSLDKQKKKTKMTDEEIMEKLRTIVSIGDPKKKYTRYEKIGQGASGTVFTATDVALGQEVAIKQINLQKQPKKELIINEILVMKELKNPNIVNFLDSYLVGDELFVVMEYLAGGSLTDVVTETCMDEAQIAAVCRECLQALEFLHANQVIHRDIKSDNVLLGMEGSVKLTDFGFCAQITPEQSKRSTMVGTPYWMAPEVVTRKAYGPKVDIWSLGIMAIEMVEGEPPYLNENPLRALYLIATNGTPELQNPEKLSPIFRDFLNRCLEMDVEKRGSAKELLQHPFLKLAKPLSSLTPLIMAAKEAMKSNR
TEST DESCRIPTION: In vitro PAK inhibition assay (Z'-LYTE, SelectScreen), PAK2
Assay type: biochemical
EXPERIMENTAL PARAMETERS: read-out: PAK2 IC50
MEASURED METRIC: IC50

Answered cases to consult:
> print(dat)
                                   compound   measurement
1  Cc1cncc(-c2ccc(-c3cc4cnc(N[C@H]5CCOC5)nc4n(C4CCN(C)CC4)c3=O)c(Cl)c2)n1  50 to 500 nM
2  CCn1c(=O)c(-c2ccc(-c3cncc(C)n3)cc2Cl)cc2cnc(NCC3CCC(N(C)C)CC3)nc21 (stereo not shown)  50 to 500 nM
3  CCn1c(=O)c(-c2ccc(-c3cncc(C)n3)cc2Cl)cc2cnc(N[C@H]3CCOC3)nc21       < 50 nM
4  CCn1c(=O)c(-c2ccc(-c3nccnc3C)cc2Cl)cc2cnc(NC3CCOC(C)C3)nc21 (stereo not shown)       < 50 nM
5  CCn1c(=O)c(-c2ccc(-c3cncc(C)n3)cc2Cl)cc2cnc(NCCOCCN)nc21  50 to 500 nM

Give measured IC50 for every item shown.
1. Cc1cncc(-c2ccc(-c3cc4cnc(NC5CCOCC5)nc4n(Cc4ccccc4Cl)c3=O)c(Cl)c2)n1
2. Cc1nccnc1-c1ccc(-c2cc3cnc(N[C@H]4CCOC4)nc3n(Cc3ccncc3)c2=O)c(Cl)c1

Data returned:
["50 to 500 nM", "50 to 500 nM"]

###

MEASURED ON: PAK3 (Homo sapiens, UniProt O75914)
Sequence (O75914 1-544 isoform O75914-2): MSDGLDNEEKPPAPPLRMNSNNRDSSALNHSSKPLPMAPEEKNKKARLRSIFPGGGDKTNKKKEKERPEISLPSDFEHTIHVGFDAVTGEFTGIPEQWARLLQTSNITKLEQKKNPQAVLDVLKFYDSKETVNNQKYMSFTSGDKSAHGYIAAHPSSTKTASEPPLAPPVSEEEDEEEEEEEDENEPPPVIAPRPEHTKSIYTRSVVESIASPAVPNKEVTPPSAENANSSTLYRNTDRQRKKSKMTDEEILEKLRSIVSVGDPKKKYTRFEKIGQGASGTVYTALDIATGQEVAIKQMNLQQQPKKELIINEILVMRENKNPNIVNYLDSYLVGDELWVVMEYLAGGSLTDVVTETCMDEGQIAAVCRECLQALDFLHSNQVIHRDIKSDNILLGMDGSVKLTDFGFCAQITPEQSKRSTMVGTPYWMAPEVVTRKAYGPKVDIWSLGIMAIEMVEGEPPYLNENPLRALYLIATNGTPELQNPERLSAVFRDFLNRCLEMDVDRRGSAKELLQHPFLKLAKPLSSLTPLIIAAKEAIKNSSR
TEST DESCRIPTION: In vitro PAK inhibition assay (Z'-LYTE, SelectScreen), PAK3
Assay type: biochemical
EXPERIMENTAL PARAMETERS: read-out: PAK3 IC50
pIC50: −log10 of the molar value.
MEASURED METRIC: pIC50

Field: example entries. Status: answers known.
> print(dat)
                                    molecule  measured.metric   measurement
 1  CCn1c(=O)c(-c2ccc(-c3nccnc3C)cc2Cl)cc2cnc(NCCC3CCNCC3)nc21 [Example 136]            pIC50  6.30 to 7.30
 2  CCn1c(=O)c(-c2cc(C)c(-c3cncc(C)n3)cc2Cl)cc2cnc(N[C@H]3CCOC3)nc21 [Example 72]            pIC50  6.30 to 7.30
 3  O=c1c(-c2ccc(-c3ccncn3)cc2Cl)cc2cnc(NC3CCOCC3)nc2n1Cc1ccccc1C(F)(F)F [Example 23]            pIC50  6.30 to 7.30
 4  Cc1cncc(-c2ccc(-c3cc4cnc(N[C@@H]5CCOC5)nc4n([C@H]4CC[C@H](N)CC4)c3=O)c(Cl)c2)n1 [Example 109]            pIC50  6.30 to 7.30
 5  COCCCn1c(=O)c(-c2ccc(-c3cncc(C)n3)cc2Cl)cc2cnc(N[C@@H]3CCOC3)nc21 [Example 64]            pIC50  6.30 to 7.30
 6  CCn1c(=O)c(-c2ccc(-c3cccnc3O)cc2Cl)cc2cnc(NC3CCOCC3)nc21 [Example 48]            pIC50  6.30 to 7.30
 7  Cc1nccnc1-c1ccc(-c2cc3cnc(NC4CCOCC4)nc3n(Cc3ccccc3C(F)(F)F)c2=O)c(Cl)c1 [Example 21]            pIC50        > 7.30
 8  CCn1c(=O)c(-c2ccc(-c3cncc(C)n3)cc2Cl)cc2cnc(NCCCOCCN)nc21 [Example 133]            pIC50  5.30 to 6.30
 9  Cc1cncc(-c2ccc(-c3cc4cnc(NC5CC5)nc4n(CCN)c3=O)c(Cl)c2)n1 [Example 111]            pIC50  6.30 to 7.30
10  Cc1cncc(-c2ccc(-c3cc4cnc(NC5CCOCC5)nc4n(Cc4ccccc4F)c3=O)c(Cl)c2)n1 [Example 36]            pIC50  6.30 to 7.30

For every item in the list below, what is its measured pIC50?
1. Cc1nccnc1-c1ccc(-c2cc3cnc(NC4CCOCC4)nc3n(Cc3ccccc3)c2=O)c(Cl)c1 [Example 16]
2. Cc1cnc(-c2ccc(-c3cc4cnc(NC5CCOCC5)nc4n(Cc4ccccc4C(F)(F)F)c3=O)c(Cl)c2)s1 [Example 26]

Data returned:
["6.30 to 7.30", "6.30 to 7.30"]

Give pIC50 for all molecules that follow.
1. CCn1c(=O)c(-c2ccc(-c3nccnc3C)cc2Cl)cc2cnc(NC3CCCOC3)nc21 (stereo not drawn) [Example 17]
2. Cc1cncc(-c2ccc(-c3cc4cnc(N[C@H]5CCOC5)nc4n(CCN)c3=O)c(Cl)c2)n1 [Example 100]
3. CCn1c(=O)c(-c2ccc(-c3cncc(C)n3)cc2Cl)cc2cnc(NC3CCOC3)nc21 (stereo not drawn) [Example 29]
4. CCn1c(=O)c(-c2ccc(-c3cncc(C)n3)cc2Cl)cc2cnc(NCCCC3CCN(C)CC3)nc21 [Example 68]
5. CCn1c(=O)c(-c2ccc(-c3ccnc(C)n3)cc2Cl)cc2cnc(NC3CCOCC3)nc21 [Example 8]
6. CCn1c(=O)c(-c2ccc(-c3cncc(C)n3)cc2Cl)cc2cnc(N[C@H]3CCCNC3=O)nc21 [Example 69]

Data returned:
1. 6.30 to 7.30
2. 6.30 to 7.30
3. 6.30 to 7.30
4. 6.30 to 7.30
5. 6.30 to 7.30
6. < 5.30

Provide pIC50 for all items below, preserving their order.
1. CCn1c(=O)c(-c2ccc(-c3cccnc3C)cc2Cl)cc2cnc(NC3CCOCC3)nc21 [Example 45]
2. CCn1c(=O)c(-c2ccc(-c3cncc(C)n3)cc2Cl)cc2cnc(NCC3CCC(N)CC3)nc21 (stereo not drawn) [Example 131]
3. CCn1c(=O)c(-c2ccc(-c3nccnc3C)cc2Cl)cc2cnc(N[C@H]3CC[C@H](N)CC3)nc21 [Example 90]
4. CCn1c(=O)c(-c2ccc(-c3nccnc3C)cc2Cl)cc2cnc(NCCN(C)C)nc21 [Example 13]

Data returned:
1: 5.30 to 6.30; 2: 6.30 to 7.30; 3: 6.30 to 7.30; 4: 5.30 to 6.30

For every item in the list below, what is its measured pIC50?
1. Cc1cncc(-c2ccc(-c3cc4cnc(NC5CC5)nc4n([C@H]4CC[C@H](N)CC4)c3=O)c(Cl)c2)n1 [Example 112]
2. Cc1nccnc1-c1ccc(-c2cc3cnc(N[C@@H]4CCOC4)nc3n(Cc3ccncc3)c2=O)c(Cl)c1 [Example 124]

Data returned:
["> 7.30", "5.30 to 6.30"]

For each entry beneath this line, provide reported pIC50.
1. CCn1c(=O)c(-c2ccc(-c3cncc(C)n3)cc2Cl)cc2cnc(NCCOCCN(C)C)nc21 [Example 127]
2. CCn1c(=O)c(-c2ccc(-c3ccnnc3)cc2Cl)cc2cnc(N[C@@H]3CCOC3)nc21 [Example 62]
3. CCN(CC)CCn1c(=O)c(-c2ccc(-c3cncc(C)n3)cc2Cl)cc2cnc(N[C@@H]3CCOC3)nc21 [Example 96]
4. CCn1c(=O)c(-c2ccc(-c3cnc(C)s3)cc2Cl)cc2cnc(N[C@@H]3CCOC3)nc21 [Example 55]
5. Cc1nccnc1-c1ccc(-c2cc3cnc(NC4CC4)nc3n([C@H]3CC[C@H](N)CC3)c2=O)c(Cl)c1 [Example 119]
6. Cc1cncc(-c2ccc(-c3cc4cnc(N[C@H]5CCOC5)nc4n([C@H]4CC[C@H](N)CC4)c3=O)c(Cl)c2)n1 [Example 110]

Data returned:
1. 6.30 to 7.30
2. < 5.30
3. 5.30 to 6.30
4. 5.30 to 6.30
5. > 7.30
6. > 7.30
